Molecular target: ERs (Homo sapiens)
Construct: endogenous in cells; host or cells: MCF-7, clone ERE-Luc B17 (only the luciferase reporter is transfected)
Sequence (P03372 whole entry): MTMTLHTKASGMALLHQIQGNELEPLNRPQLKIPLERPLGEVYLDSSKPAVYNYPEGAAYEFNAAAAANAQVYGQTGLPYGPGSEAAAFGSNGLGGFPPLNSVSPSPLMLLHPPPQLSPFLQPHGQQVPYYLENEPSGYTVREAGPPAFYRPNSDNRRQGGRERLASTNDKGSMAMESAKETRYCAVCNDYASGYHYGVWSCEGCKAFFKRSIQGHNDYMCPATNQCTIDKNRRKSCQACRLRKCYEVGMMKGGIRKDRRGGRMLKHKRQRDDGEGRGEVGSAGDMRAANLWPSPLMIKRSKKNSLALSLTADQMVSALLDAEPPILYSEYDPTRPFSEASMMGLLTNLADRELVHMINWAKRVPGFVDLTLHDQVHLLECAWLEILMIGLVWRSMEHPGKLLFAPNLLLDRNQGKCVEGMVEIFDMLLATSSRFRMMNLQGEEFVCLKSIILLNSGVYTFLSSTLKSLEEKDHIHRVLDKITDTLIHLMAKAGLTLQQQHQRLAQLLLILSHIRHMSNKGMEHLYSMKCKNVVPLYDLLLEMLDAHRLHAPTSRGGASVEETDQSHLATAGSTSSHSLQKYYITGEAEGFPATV
Assay: ER transactivation assay in ERE-Luc B17 cells (luciferase reporter)
Format: cell-based
Conditions: ERE-Luc B17 cells, 10^-5 M of compound respect to vehicle
# Lookup of reported fold induction at 10 µM keyed by entry

smiles text | fold induction at 10 µM
COC(=O)CCC#C[C@]1(O)CC[C@H]2[C@@H]3CCc4cc(O)ccc4[C@H]3CC[C@@]21C | 4.3
CC(C)OC(=O)CCC#C[C@]1(O)CC[C@H]2[C@@H]3CCc4cc(O)ccc4[C@H]3CC[C@@]21C | 5
CCCCOC(=O)CCC#C[C@]1(O)CC[C@H]2[C@@H]3CCc4cc(O)ccc4[C@H]3CC[C@@]21C | 2.6
CCCOC(=O)CCC#C[C@]1(O)CC[C@H]2[C@@H]3CCc4cc(O)ccc4[C@H]3CC[C@@]21C | 2.6

Okay, next one:
input: Report fold induction at 10 µM for COC(=O)CCCC#C[C@]1(O)CC[C@H]2[C@@H]3CCc4cc(O)ccc4[C@H]3CC[C@@]21C
output: 2.5
